target: Human KRAS G12V (Homo sapiens, UniProt P01116, G12V); experiment: KRAS-G12V/GTP binding assay (HTRF kit); conditions: 25° C., 1 h
Sequence (P01116 1-188 isoform P01116-2 G12V): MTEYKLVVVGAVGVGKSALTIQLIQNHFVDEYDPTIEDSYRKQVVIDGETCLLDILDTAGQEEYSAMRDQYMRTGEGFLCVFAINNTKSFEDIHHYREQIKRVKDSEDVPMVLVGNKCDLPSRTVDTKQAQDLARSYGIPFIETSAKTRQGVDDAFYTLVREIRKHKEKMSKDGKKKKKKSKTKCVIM
Reported IC50 values for the following compounds.

[
  {
    "querySmiles": "CCc1cccc2cc(O)cc(-c3ncc4c(N5CCC[C@@](C)(O)C5)nc(OCC5(CN6CCN(CC7CCC8(CC7)CCN(C(=O)c7ccc(Cl)c(N9CCC(=O)NC9=O)c7)CC8)CC6)CC5)nc4c3F)c12",
    "IC50": "≤ 0.5 µM"
  },
  {
    "querySmiles": "C#Cc1c(F)ccc2cc(O)cc(-c3ncc4c(N5CCC[C@@](C)(O)C5)nc(OCC5(CN6CCN(C(=O)c7ccc(Cl)c(N8CCC(=O)NC8=O)c7)CC6)CC5)nc4c3F)c12",
    "IC50": "≤ 0.5 µM"
  }
]

Attention now turns to another entry.
// compound `C#Cc1c(F)ccc2cc(O)cc(-c3ncc4c(N(C)C5CC5)nc(OCC5(CN6CCN(CC7CCC8(CC7)CCN(C(=O)c7ccc(OC)c(N9CCC(=O)NC9=O)c7)CC8)CC6)CC5)nc4c3F)c12` , assay Human KRAS G12V (Homo sapiens, UniProt P01116, G12V), IC50 value: 0.5 to 1 µM

---

target: KRAS G12C protein in NCI-H358 cells (Homo sapiens, UniProt P01116, G12C); construct: endogenous in cells; host or cells: NCI-H358; test: KRAS degradation assay (Western Blot) in NCI-H358 cells; format: cell-based; conditions: 24 h
Sequence (P01116 1-188 isoform P01116-2 G12C): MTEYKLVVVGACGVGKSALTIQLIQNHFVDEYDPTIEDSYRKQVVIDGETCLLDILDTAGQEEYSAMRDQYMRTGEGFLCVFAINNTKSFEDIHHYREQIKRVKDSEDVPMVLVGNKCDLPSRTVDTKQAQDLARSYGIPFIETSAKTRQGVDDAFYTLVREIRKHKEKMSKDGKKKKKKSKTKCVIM
endpointName: Dmax (%)

[
  {
    "querySmiles": "C#Cc1c(F)ccc2cc(O)cc(-c3ncc4c(N5CCC[C@@](C)(O)C5)nc(OC[C@H](C)CN5CCN(CC6CCC7(CC6)CCN(C(=O)c6ccc(C)c(N8CCC(=O)NC8=O)c6)CC7)CC5)nc4c3F)c12",
    "endpointName": "Dmax",
    "endpointResult": 88.9
  },
  {
    "querySmiles": "[2H]C([2H])([2H])Oc1ccc(C(=O)N2CCC3(CCC(CN4CCN(C[C@@H](C)COc5nc(N6CCC[C@@](C)(O)C6)c6cnc(-c7cc(O)cc8ccc(F)c(C#C)c78)c(F)c6n5)CC4)CC3)CC2)cc1N1CCC(=O)NC1=O",
    "endpointName": "Dmax",
    "endpointResult": 98.2
  },
  {
    "querySmiles": "[2H]C([2H])([2H])Oc1ccc(C(=O)N2CCC3(CCC(CN4CCN(CC5(COc6nc(N7CCC[C@@](C)(O)C7)c7cnc(-c8cc(O)cc9ccc(F)c(C#C)c89)c(F)c7n6)CC5)CC4)CC3)CC2)cc1N1CCC(=O)NC1=O",
    "endpointName": "Dmax",
    "endpointResult": 96.1
  },
  {
    "querySmiles": "C#Cc1c(F)ccc2cc(O)cc(-c3ncc4c(N5CCC[C@@](C)(O)C5)nc(OCC5(CN6CCN(CC7CCC8(CC7)CCN(C(=O)c7cc(N9CCC(=O)NC9=O)c(C)cc7F)CC8)CC6)CC5)nc4c3F)c12",
    "endpointName": "Dmax",
    "endpointResult": 92.7
  }
]

---

biological target: KRAS G12V protein in SW620 cells (Homo sapiens, UniProt P01116, G12V); construct: endogenous in cells; host or cells: SW620; test: KRAS degradation assay (Western Blot) in SW620 cells; type: cell-based; details: 24 h
endpointName: DC50 (nM)

[
  {
    "compound": "C#Cc1c(F)ccc2cc(O)cc(-c3ccc4c(N5CCC[C@@](C)(O)C5)nc(OC[C@H](C)CN5CCN(CC6CCC7(CC6)CCN(C(=O)c6ccc(OC)c(N8CCC(=O)NC8=O)c6)CC7)CC5)nc4c3F)c12 [Example 60]",
    "DC50 (nM)": 4.25
  },
  {
    "compound": "C#Cc1c(F)ccc2cc(O)cc(-c3ncc4c(N(C)[C@H]5C[C@@H]5F)nc(OC[C@H](C)CN5CCN(CC6CCC7(CC6)CCN(C(=O)c6ccc(OC)c(N8CCC(=O)NC8=O)c6)CC7)CC5)nc4c3F)c12 [Example 50]",
    "DC50 (nM)": 3.22
  }
]

[1] [2H]C([2H])([2H])Oc1ccc(C(=O)N2CCC3(CCC(CN4CCN(CC5(COc6nc(N7CCC[C@@](C)(O)C7)c7cnc(-c8cc(O)cc9ccc(F)c(C#C)c89)c(F)c7n6)CC5)CC4)CC3)CC2)cc1N1CCC(=O)NC1=O [Example 170]
[2] [2H]C([2H])([2H])Oc1ccc(C(=O)N2CCC3(CCC(CN4CCN(C[C@@H](C)COc5nc(N6CCC[C@@](C)(O)C6)c6cnc(-c7cc(O)cc8ccc(F)c(C#C)c78)c(F)c6n5)CC4)CC3)CC2)cc1N1CCC(=O)NC1=O [Example 164]
[3] C#Cc1c(F)ccc2cc(O)cc(-c3ncc4c(N5CCC[C@@](C)(O)C5)nc(OCC5(CN6CCN(CC7CCC8(CC7)CCN(C(=O)c7cc(N9CCC(=O)NC9=O)c(C)cc7F)CC8)CC6)CC5)nc4c3F)c12 [Example 91]
[4] C#Cc1c(F)ccc2cc(O)cc(-c3ncc4c(N5CCC[C@@](C)(O)C5)nc(OC[C@H](C)CN5CCN(CC6CCC7(CC6)CCN(C(=O)c6ccc(Cl)c(N8CCC(=O)NC8=O)c6)CC7)CC5)nc4c3F)c12 [Example 48]
[5] C#Cc1c(F)ccc2cc(O)cc(-c3ncc4c(N5CCC[C@@](C)(O)C5)nc(OCC(C)CN5CCN(CC6CCC7(CC6)CCN(C(=O)c6ccc(OC)c(N8CCC(=O)NC8=O)c6)CC7)CC5)nc4c3F)c12 (stereo partly drawn) [Example 86]
Returns the items ordered by DC50, from maximum to minimum. # respond with the labels, arranged in the requested order
5, 2, 3, 1, 4
(5: 14.2 nM, 2: 7.48 nM, 3: 5.16 nM, 1: 2.35 nM, 4: 1.02 nM)

[I] [2H]C([2H])([2H])c1ccc(C(=O)N2CCC3(CCC(CN4CCN(CC5(COc6nc(N7CCC[C@@](C)(O)C7)c7cnc(-c8cc(O)cc9ccc(F)c(C#C)c89)c(F)c7n6)CC5)CC4)CC3)CC2)cc1N1CCC(=O)NC1=O [Example 111]
[II] C#Cc1c(F)ccc2cc(O)cc(-c3ncc4c(N5CCC[C@@](C)(O)C5)nc(OCC5(CN6CCN(CC7CCC8(CC7)CCN(C(=O)c7ccc(Cl)c(N9CCC(=O)NC9=O)c7)CC8)CC6)CC5)nc4c3F)c12 [Example 1]
[III] C#Cc1c(F)ccc2cc(O)cc(-c3ncc4c(N5CCC[C@@](C)(O)C5)nc(OCC5(CN6CCN(CC7CCC8(CC7)CCN(C(=O)c7ccc(OC)c(N9CCC(=O)NC9=O)c7)CC8)CC6)CC5)nc4c3F)c12 [Example 7]
[IV] C#Cc1c(F)ccc2cc(O)cc(-c3ncc4c(N5CCCC(F)(F)C5)nc(OC[C@H](C)CN5CCN(CC6CCC7(CC6)CCN(C(=O)c6ccc(OC)c(N8CCC(=O)NC8=O)c6)CC7)CC5)nc4c3F)c12 [Example 67]
Returns the items ordered by DC50, from maximum to minimum. # respond with the labels, arranged in the requested order
IV, II, I, III

[1] C#Cc1c(F)ccc2cc(O)cc(-c3ncc4c(N5CCC[C@@](C)(O)C5)nc(OCC5(CN6CCN(CC7CCC8(CC7)CCN(C(=O)c7ccc(CC)c(N9CCC(=O)NC9=O)c7)CC8)CC6)CC5)nc4c3F)c12 [Example 92]
[2] C#Cc1c(F)ccc2cc(O)cc(-c3ncc4c(N5CCC[C@@](C)(O)C5)nc(OC[C@H](C)CN5CCN(CC6CCC7(CC6)CCN(C(=O)c6ccc(CC)c(N8CCC(=O)NC8=O)c6)CC7)CC5)nc4c3F)c12 [Example 133]
[3] C#Cc1c(F)ccc2cc(O)cc(-c3ccc4c(N5CCC[C@@](C)(O)C5)nc(OC[C@H](C)CN5CCN(CC6CCC7(CC6)CCN(C(=O)c6ccc(C)c(N8CCC(=O)NC8=O)c6)CC7)CC5)nc4c3F)c12 [Example 61]
Returns the items ordered by DC50, from maximum to minimum. # respond with the labels, arranged in the requested order
3, 2, 1
(3: 18.9 nM, 2: 6.73 nM, 1: 1.34 nM)
